These data points were gathered from the supplement of paper PMC10567573.

B1: CDKN1A (parent)
chain: RRQTSMTDFYHSKRRLIFSKRKP

Variants of: B1
Procedure Summary: protein stability index of a GFP-peptide fusion (GPS, HEK-293T) (PSI 1-6); higher = more stable;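 further: lentivirally expressed fusions sorted by FACS into six bins by GFP to DsRed ratio, PSI derived from sequencing read proportions per bin multiplied by bin number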
Assay Setup: c terminus: native

{"columns": ["Variant Descriptor", "protein stability index"],
 "data": [
  ["L16G", 3.3],
  ["T7E", 3.61],
  ["R1G", 1.02],
  ["F18R", 2.05],
  ["T7C", 1.94],
  ["R14K", 4.64],
  ["S5R", 2.53],
  ["R1A", 1.71],
  ["K22Q", 2.42],
  ["R15Q", 2.41],
  ["S12P", 2.31],
  ["F18D", 3.34],
  ["F9H", 4.22],
  ["F18T", 2.45],
  ["Y10M", 3.11],
  ["R1L", 1.96],
  ["R2L", 1.97],
  ["S19I", 2.54],
  ["S19C", 2.57],
  ["Y10R", 3.01],
  ["F9I", 3.36],
  ["R21G", 3.01],
  ["I17M", 3.71],
  ["H11Y", 1.66],
  ["I17T", 2.63],
  ["K20F", 2.31],
  ["S12A", 2.99],
  ["P23C", 3.15],
  ["F9V", 2.43],
  ["T4W", 4.11],
  ["S19H", 1.53],
  ["H11P", 2.49],
  ["I17G", 1.79],
  ["D8F", 3.24],
  ["F9L", 2.24],
  ["F9Y", 3.43],
  ["S12E", 2.92],
  ["R1F", 3.44],
  ["L16P", 3.36],
  ["R2M", 4.02],
  ["R2D", 2.5],
  ["R2A", 2.1],
  ["D8T", 3.06],
  ["S12M", 2.75],
  ["K22S", 3.2],
  ["K22F", 1.77]
]}
